assay: Acute toxicity study (OECD guidelines), single dose by gavage; format: in vivo; conditions: both sexes, Kunming, mouse, in vivo, po
Structures can show the parent of a compound that is named as a salt.
ENDPOINT LABEL: LD50 at 14 days

Would you kindly share the measured LD50 at 14 days for Cc1c(Cl)cccc1Nc1ccccc1C(=O)Nc1ccc(N2CCN(C)CC2)cc1 [N53·HCl] ?
> 1000 mg/kg

====

assay: Oral pharmacokinetics study; type: in vivo, SD rats; details: male, SD, rat, plasma, po, 100 mg/kg, 100 mg/kg p.o., n = 3; read-out: Tmax
Counter-ions that a name gives are not always drawn.
ENDPOINT LABEL: Tmax (h)
The response must be a number in h with no trailing unit.

Fill in the blank: the reported Tmax of Cc1c(Cl)cccc1Nc1ccccc1C(=O)Nc1ccc(N2CCN(C)CC2)cc1 [N53·HCl] is ____.
6.67

====

test system: SK-Hep-1; assay: MTT anti-proliferation assay, SK-Hep-1; assay type: cell-based, human; details: 72 h, read-out: IC50 ± SD SK-Hep-1
ENDPOINT LABEL: IC50 (µM)
Give just the numeric value; µM need not be written.

Tell me the measured IC50 of Cc1c(Cl)cccc1Nc1ccccc1C(=O)Nc1ccc(N2CCN(C)CC2)cc1 [Compound N53] , please.
5.66

Values from paper PMC11570809
